Hey, just so you know, these numbers are from PubChem BioAssay (Tox21).

assay: qHTS assay for small molecules that induce genotoxicity in human embryonic kidney cells expressing luciferase-tagged ATAD5 (AID 651632); conditions: HEK293T ATAD5-luciferase induction, 16 h; series mostly up to 83.3 µM; further: nearly all actives have a fitted effect of over 15% in size
Inconclusive results are not listed. Activity calls are given as the source filed them. The call rests on the fitted dose curve; in most records, active means well fitted activation curve with a large enough effect in the repeat runs; inconclusive means weak or mixed curves; inactive means no such curve, though single readings can be large or run the other way.
The reply should name one outcome from active, inactive

Returns: the outcome recorded for `ClCC(Cl)CCl` in this assay.
inactive

Returns: the outcome recorded for `OCCOCCO` in this assay.
inactive

Returns: the outcome recorded for CCCCCCCCCC(CC)c1ccc(S(=O)(=O)O)cc1 (configuration not stated) in this assay.
inactive

Returns: the outcome recorded for CC(C)(c1ccc(OCC2CO2)cc1)c1ccc(OCC2CO2)cc1 (configuration not stated) in this assay.
inactive

Returns: the outcome recorded for `CCCCSP(=O)(SCCCC)SCCCC` in this assay.
inactive

Returns: the outcome recorded for CCCCOCC1CO1 (configuration not stated) in this assay.
inactive

Returns: the outcome recorded for `C=CC(=O)OCC(CC)(COC(=O)C=C)COC(=O)C=C` in this assay.
active

Returns: the outcome recorded for `CC(C)(O)C#N` in this assay.
inactive

Returns: the outcome recorded for `CCOP(=O)(OCC)OCC` in this assay.
inactive

Returns: the outcome recorded for `Nc1ccc([N+](=O)[O-])cc1N` in this assay.
inactive

Returns: the outcome recorded for `CCC[CH2][Sn]([Cl])([Cl])[CH2]CCC` in this assay.
inactive

Returns: the outcome recorded for c1ccc(C2CO2)cc1 (configuration not stated) in this assay.
inactive
